For each record, write down the corresponding pKd.
Molecular target: LC3B R11A (human, UniProt Q9GZQ8 1-120, R11A)
Test: ITC; MicroCal iTC200, 25 °C; proteins 0.25 mmol/L and peptides 3 mmol/L, dialyzed against buffer B (20 mmol/L Tris-HCl, 200 mmol/L NaCl, 1 mmol/L EDTA, pH 8.0); single binding site model
Settings: both partners purified
Non-standard residues stand in square brackets, D forms with d. No end group written: not given here. pS = N[C@@H](COP(=O)(O)O)C(=O)O
Answers are plain numbers, as −log10 of the molar value.

1) DYE[pS]DDDSYEVLDLTE (also called FUNDC1 pS13; pS13 peptide; source: synthetic peptide (GL Biochem, Shanghai)) [FUNDC1 LIR peptide 10-25 phosphorylated at Ser13]
4.95

Please find the next binder below.
Request the reported pKd associated with DYESDDDSYEVLDLTE (FUNDC1 (Fun14 domain-containing protein 1), LIR and flanking residues 10-25; also called unphosphorylated FUNDC1 peptide; FUNDC1 peptide; source: synthetic peptide (GL Biochem, Shanghai)) [FUNDC1 LIR peptide 10-25, unphosphorylated]
5.25
